Recorded values, source ChEMBL document CHEMBL2434854.

# Test system: LoVo
# assay-method-text: Anticancer activity against human LoVo cells after 48 hrs by SRB assay
# Type: functional, cell-based
# condition-description: Homo sapiens, LoVo, 48 h; read-out: IC50
molecules and their reported pIC50
Just so you know, pIC50 here is -log10 of the concentration in molar units; reply with that number alone.

In the examples that follow, each entry is paired with its recorded pIC50.
Looking up N=C(N)NS(=O)(=O)c1ccc(Nc2ccnc3cc(C(F)(F)F)ccc23)cc1 , I see its pIC50 listed as 4.61

Looking up O=S(=O)(Nc1nccs1)c1ccc(N/C(S)=N\c2ccnc3cc(C(F)(F)F)ccc23)cc1 , I see its pIC50 listed as 4.17

Looking up NS(=O)(=O)c1ccc(Nc2ccnc3cc(C(F)(F)F)ccc23)cc1 , I see its pIC50 listed as 4.58

Looking up N=C(N)NS(=O)(=O)c1ccc(N/C(S)=N\c2ccnc3cc(C(F)(F)F)ccc23)cc1 , I see its pIC50 listed as 4.62

Looking up O=S(=O)(Nc1ncccn1)c1ccc(N/C(S)=N\c2ccnc3cc(C(F)(F)F)ccc23)cc1 , I see its pIC50 listed as 4.46

Next:
Looking up O=S(=O)(Nc1ncccn1)c1ccc(Nc2ccnc3cc(C(F)(F)F)ccc23)cc1 , I see its pIC50 listed as 4.56

Looking up O=S(=O)(Nc1ccccn1)c1ccc(Nc2ccnc3cc(C(F)(F)F)ccc23)cc1 , I see its pIC50 listed as 4.69

Looking up Cc1noc(NS(=O)(=O)c2ccc(Nc3ccnc4cc(C(F)(F)F)ccc34)cc2)c1C , I see its pIC50 listed as 4.44

Looking up COc1ncnc(NS(=O)(=O)c2ccc(Nc3ccnc4cc(C(F)(F)F)ccc34)cc2)c1OC , I see its pIC50 listed as 4.40

Looking up Cc1cc(C)nc(NS(=O)(=O)c2ccc(N/C(S)=N\c3ccnc4cc(C(F)(F)F)ccc34)cc2)n1 , I see its pIC50 listed as 4.40

Looking up NS(=O)(=O)c1ccc(N/C(S)=N\c2ccnc3cc(C(F)(F)F)ccc23)cc1 , I see its pIC50 listed as 4.46

Looking up COc1cc(NS(=O)(=O)c2ccc(N/C(S)=N\c3ccnc4cc(C(F)(F)F)ccc34)cc2)nc(OC)n1 , I see its pIC50 listed as 4.12

Looking up Cc1cc(C)nc(NS(=O)(=O)c2ccc(Nc3ccnc4cc(C(F)(F)F)ccc34)cc2)n1 , I see its pIC50 listed as 4.35
